The origin of these recorded values is patent US6355799B1.

Test system: field corn (Zea mays L., var. Dekalb 535, CORN)
Procedure details: Post-emerge test, crop safety
Type: in vivo
Conditions used: Rate 63 g ai/ha; rating scale 0-100 (0 no damage, 100 complete death); 14 days after application
# label = rule met if Post-emerge phytotoxicity rating CORN (crop damage) >= 20 else rule not met

Hi team, for COc1c(Cl)cc(F)c(-n2c(=O)cc(C(F)(F)F)n(C)c2=O)c1CC(Cl)C(=O)OCC(C)C (single isomer, unassigned) [14-14] , is the recorded Post-emerge phytotoxicity rating CORN (crop damage) at or above 20?
rule not met

Form field: Post-emerge phytotoxicity rating CORN (crop damage) at least 20? Entry: COc1c(Cl)cc(F)c(-n2c(=O)cc(C(F)(F)F)n(C)c2=O)c1CC(Cl)C(=O)OCC(Br)CBr (single isomer, unassigned) [14-31]
rule not met

Decide: is the reported value of Post-emerge phytotoxicity rating CORN (crop damage) for CCOC(=O)C(Br)Cc1c(OC)c(Cl)cc(F)c1-n1c(=O)cc(C(F)(F)F)n(C)c1=O (single isomer, unassigned) [14-33] equal to or greater than 20?
rule not met

Dear colleague, could you confirm whether COCCOC(=O)C(Cl)Cc1c(OC)c(Cl)cc(F)c1-n1c(=O)cc(C(F)(F)F)n(C)c1=O (stereo not shown) [14-25] has Post-emerge phytotoxicity rating CORN (crop damage) at or above 20?
rule met

Determine whether this molecule has Post-emerge phytotoxicity rating CORN (crop damage) no lower than 20: COc1c(Cl)cc(F)c(-n2c(=O)cc(C(F)(F)F)n(C)c2=O)c1CC(Cl)C(=O)OCCC#N (stereo not shown) [14-29]
rule not met

Can COc1c(Cl)cc(F)c(-n2c(=O)cc(C(F)(F)F)n(C)c2=O)c1CC(C)(Cl)C(=O)OCCSC (stereo not shown) [14-48] be said to have Post-emerge phytotoxicity rating CORN (crop damage) at or above 20?
rule met
